The values you see were collected from patent US6867192B1.

Target: integrin VLA-4, expressed on the Jurkat J6 (human lymphoblast cell line) cell membrane with VCAM-1 (Homo sapiens, UniProt P05556+P13612)
Construct: integrin VLA-4, expressed on the Jurkat J6 (human lymphoblast cell line) cell membrane; endogenous in cells
Sequence (P13612 34-1032): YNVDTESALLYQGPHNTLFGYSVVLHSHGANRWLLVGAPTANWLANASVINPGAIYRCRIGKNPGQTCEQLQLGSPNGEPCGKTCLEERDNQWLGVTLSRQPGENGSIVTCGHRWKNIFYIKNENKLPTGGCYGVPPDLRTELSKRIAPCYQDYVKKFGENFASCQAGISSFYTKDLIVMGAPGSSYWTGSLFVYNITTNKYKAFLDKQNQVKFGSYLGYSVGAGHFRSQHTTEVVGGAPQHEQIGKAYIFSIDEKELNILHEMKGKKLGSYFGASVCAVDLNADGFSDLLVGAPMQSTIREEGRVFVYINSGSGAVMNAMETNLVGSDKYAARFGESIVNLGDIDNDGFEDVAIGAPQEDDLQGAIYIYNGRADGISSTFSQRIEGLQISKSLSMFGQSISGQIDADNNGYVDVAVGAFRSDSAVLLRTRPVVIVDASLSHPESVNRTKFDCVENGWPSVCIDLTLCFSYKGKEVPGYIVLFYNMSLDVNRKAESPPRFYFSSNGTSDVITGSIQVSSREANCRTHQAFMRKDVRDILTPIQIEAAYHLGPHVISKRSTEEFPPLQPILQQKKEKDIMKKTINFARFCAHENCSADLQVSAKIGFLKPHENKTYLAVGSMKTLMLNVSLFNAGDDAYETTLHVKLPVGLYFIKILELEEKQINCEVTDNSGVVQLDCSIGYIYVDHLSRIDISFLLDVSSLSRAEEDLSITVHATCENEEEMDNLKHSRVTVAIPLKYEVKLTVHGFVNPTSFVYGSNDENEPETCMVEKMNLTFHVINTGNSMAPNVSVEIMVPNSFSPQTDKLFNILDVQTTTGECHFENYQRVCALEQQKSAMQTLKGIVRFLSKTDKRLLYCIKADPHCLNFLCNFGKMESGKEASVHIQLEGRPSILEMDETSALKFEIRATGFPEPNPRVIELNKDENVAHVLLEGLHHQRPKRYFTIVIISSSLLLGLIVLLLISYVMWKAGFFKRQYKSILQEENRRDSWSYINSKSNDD
Sequence (P05556 21-798): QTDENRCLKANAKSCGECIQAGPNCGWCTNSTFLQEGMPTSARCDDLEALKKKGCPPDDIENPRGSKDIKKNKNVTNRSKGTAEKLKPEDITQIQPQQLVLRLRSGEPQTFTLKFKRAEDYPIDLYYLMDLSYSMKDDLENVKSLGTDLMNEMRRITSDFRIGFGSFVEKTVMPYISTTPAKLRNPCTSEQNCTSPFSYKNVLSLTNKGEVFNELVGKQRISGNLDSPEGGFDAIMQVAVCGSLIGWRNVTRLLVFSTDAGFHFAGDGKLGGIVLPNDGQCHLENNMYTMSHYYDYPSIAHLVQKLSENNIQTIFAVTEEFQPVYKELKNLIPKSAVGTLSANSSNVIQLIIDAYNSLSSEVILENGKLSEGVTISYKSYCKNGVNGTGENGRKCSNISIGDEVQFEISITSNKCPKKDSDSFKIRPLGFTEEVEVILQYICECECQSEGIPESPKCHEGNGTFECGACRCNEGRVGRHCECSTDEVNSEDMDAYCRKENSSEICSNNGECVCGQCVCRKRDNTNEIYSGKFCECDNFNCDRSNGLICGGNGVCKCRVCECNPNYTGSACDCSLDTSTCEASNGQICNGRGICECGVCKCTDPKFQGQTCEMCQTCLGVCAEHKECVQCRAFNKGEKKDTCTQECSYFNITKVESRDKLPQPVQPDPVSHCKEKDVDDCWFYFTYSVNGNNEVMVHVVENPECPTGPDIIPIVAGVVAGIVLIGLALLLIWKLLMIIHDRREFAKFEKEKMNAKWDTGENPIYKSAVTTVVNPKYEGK
Assay: Jurkat J6/VCAM-1 adhesion assay
Settings: Jurkat J6 cell adhesion to VCAM-1, 1 mM MnCl2; mean of n experiments
From the text: (1) Jurkat J6/VCAM-1 Adhesion Assay This assay was used to investigate the interaction of the integrin VLA-4, expressed on the Jurkat J6 (human lymphoblast cell line) cell membrane with VCAM-1. […]

# STRUCTURE, UNIT_ANNOTATION, IC50
measured = [
    ("CC(C)C[C@H](NC(=O)COc1ccccc1I)C(=O)N[C@@H](Cc1ccc(OC(=O)N2CCOCC2)cc1)C(=O)O", "nM", 4.47),
    ("CC(C)C[C@H](NC(=O)COc1ccccc1C(C)(C)C)C(=O)N[C@@H](Cc1ccc(OC(=O)N2CCC(C(=O)N3CCCCC3)CC2)cc1)C(=O)O", "nM", 16.2),
    ("CC(=O)N1CCN(C(=O)Oc2ccc(C[C@H](NC(=O)[C@H](CC(C)C)NC(=O)COc3ccccc3C)C(=O)O)cc2)CC1", "nM", 2.57),
    ("CC(=O)N1CCN(C(=O)Oc2ccc(C[C@H](NC(=O)[C@H](CC(C)C)NC(=O)COc3ccccc3C(C)(C)C)C(=O)O)cc2)CC1", "nM", 3.24),
    ("CC(C)C[C@H](NC(=O)c1cccc2c1oc1ccccc12)C(=O)N[C@@H](Cc1ccc(OC(=O)N2CCC(NC(=O)Cc3ccccc3)CC2)cc1)C(=O)O", "nM", 25.7),
    ("Cc1ccccc1OCC(=O)N[C@@H](CC(C)C)C(=O)N[C@@H](Cc1ccc(OC(=O)N2CCN(C(=O)c3ccccc3)CC2)cc1)C(=O)O", "nM", 3.89),
]

* * *

Assay: Solubility in water
Assay type: physicochemical

# MOLECULE, solubility
records = [
    ("Cc1ccccc1OCC(=O)N[C@@H](CC(C)C)C(=O)N[C@@H](Cc1ccc(OC(=O)N2CCC(C(N)=O)CC2)cc1)C(=O)[O-].[K+] [Example 27A]", "> 250000 µg/mL"),
    ("Cc1ccccc1OCC(=O)N[C@@H](CC(C)C)C(=O)N[C@@H](Cc1ccc(OC(=O)N2CCC(C(N)=O)CC2)cc1)C(=O)O [Example 27]", "10 µg/mL"),
]

* * *

Target: integrin VLA-4, expressed on the Jurkat J6 (human lymphoblast cell line) cell membrane with VCAM-1 (Homo sapiens, UniProt P05556+P13612)
Construct: integrin VLA-4, expressed on the Jurkat J6 (human lymphoblast cell line) cell membrane; endogenous in cells
Experiment: Jurkat J6/VCAM-1 adhesion assay
Settings: Jurkat J6 cell adhesion to VCAM-1, 1 mM MnCl2; mean of n experiments
pIC50: −log10 of the molar value.
Threshold check on pIC50: at or above 8 gives class 1, strictly below gives class 0.

# MOLECULE, LABEL_CLASS
data = [
    ("CCCc1ccccc1OCC(=O)N[C@@H](CC(C)C)C(=O)N[C@@H](Cc1ccc(OC(=O)N2CCOCC2)cc1)C(=O)O [Example 37]", "class 1"),
    ("CC(C)C[C@H](NC(=O)c1cccc2c1oc1ccccc12)C(=O)N[C@@H](Cc1ccc(OC(=O)N2CCC(C(=O)N3CCCCC3)CC2)cc1)C(=O)O [Example 31]", "class 0"),
    ("CC(C)C[C@H](NC(=O)COc1ccc2ccccc2c1Br)C(=O)N[C@@H](Cc1ccc(OC(=O)N2CCC(C(=O)N3CCCCC3)CC2)cc1)C(=O)O [Example 32]", "class 0"),
    ("CC(C)C[C@H](NC(=O)COc1ccccc1C(C)(C)C)C(=O)N[C@@H](Cc1ccc(OC(=O)N2CCC(NC(=O)C(C3CCCCC3)C3CCCCC3)CC2)cc1)C(=O)O [Example 53]", "class 0"),
    ("CC(C)C[C@H](NC(=O)COc1ccccc1I)C(=O)N[C@@H](Cc1ccc(OC(=O)N2CCC(C(N)=O)CC2)cc1)C(=O)O [Example 26]", "class 1"),
    ("CC(C)C[C@H](NC(=O)COc1ccc(C(N)=O)cc1)C(=O)N[C@@H](Cc1ccc(OC(=O)N2CCC(C(N)=O)CC2)cc1)C(=O)O [Example 7]", "class 1"),
    ("CC(C)C[C@H](NC(=O)COc1ccc(C(=O)N2CCCCC2)cc1)C(=O)N[C@@H](Cc1ccc(OC(=O)N2CCC(NC(=O)C(C3CCCCC3)C3CCCCC3)CC2)cc1)C(=O)O [Example 3]", "class 0"),
    ("CC(C)C[C@H](NC(=O)c1cccc2c1oc1ccccc12)C(=O)N[C@@H](Cc1ccc(OC(=O)N2CCC(C(N)=O)CC2)cc1)C(=O)O [Example 28]", "class 1"),
    ("Cc1ccccc1OCC(=O)N[C@@H](CC(C)C)C(=O)N[C@@H](Cc1ccc(OC(=O)N2CCOCC2)cc1)C(=O)O [Example 25]", "class 1"),
    ("CC(C)C[C@H](NC(=O)COc1ccc(Cl)cc1Cl)C(=O)N[C@@H](Cc1ccc(OC(=O)N2CCN(C(=O)c3ccccc3)CC2)cc1)C(=O)O [Example 22]", "class 0"),
    ("CC(C)C[C@H](NC(=O)COc1ccc2ccccc2c1Br)C(=O)N[C@@H](Cc1ccc(OC(=O)N2CCN(C(=O)c3ccco3)CC2)cc1)C(=O)O [Example 44]", "class 0"),
    ("CC(C)C[C@H](NC(=O)COc1ccccc1C(C)(C)C)C(=O)N[C@@H](Cc1ccc(OC(=O)N2CCC(C(N)=O)CC2)cc1)C(=O)O [Example 33]", "class 1"),
]

* * *

Molecular target: integrin VLA-4, expressed on the Jurkat J6 (human lymphoblast cell line) cell membrane with VCAM-1 (Homo sapiens, UniProt P05556+P13612)
Construct: integrin VLA-4, expressed on the Jurkat J6 (human lymphoblast cell line) cell membrane; endogenous in cells; host or cells: Jurkat J6 cells (integrin). zzVCAM-1 was made in house in Drosophila melanogaster S2 cells
Experiment: Jurkat J6/VCAM-1 adhesion assay
Type: cell-based
Details: Jurkat J6 cell adhesion to VCAM-1, 1 mM MnCl2; mean of n experiments
Field: class. Source value: IC50. Ranges: lo = under 0.008 µM, mid = from 0.008 µM up to 0.03 µM, hi = 0.03 µM and over

# STRUCTURE, LABEL_CLASS
measured = [
    ("CC(C)C[C@H](NC(=O)COc1ccccc1C(=O)c1ccccc1)C(=O)N[C@@H](Cc1ccc(OC(=O)N2CCC(C(N)=O)CC2)cc1)C(=O)O", "lo"),
    ("CC(C)C[C@H](NC(=O)COc1ccccc1C1CCCCC1)C(=O)N[C@@H](Cc1ccc(OC(=O)N2CCN(C(=O)c3ccco3)CC2)cc1)C(=O)O", "mid"),
    ("CC(C)C[C@H](NC(=O)COc1ccccc1I)C(=O)N[C@@H](Cc1ccc(OC(=O)N2CCC(NC(=O)Cc3ccc(Cl)cc3)CC2)cc1)C(=O)O", "hi"),
    ("Cc1ccccc1OCC(=O)N[C@@H](CC(C)C)C(=O)N[C@@H](Cc1ccc(OC(=O)N2CCC(C(N)=O)CC2)cc1)C(=O)O", "lo"),
    ("CC(C)C[C@H](NC(=O)COc1ccccc1I)C(=O)N[C@@H](Cc1ccc(OC(=O)N2CCC(NC(=O)CC3CCCCC3)CC2)cc1)C(=O)O", "hi"),
    ("CC(C)C[C@H](NC(=O)COc1ccc2ccccc2c1Br)C(=O)N[C@@H](Cc1ccc(OC(=O)N2CCOCC2)cc1)C(=O)O", "mid"),
    ("CC(C)C[C@H](NC(=O)c1cccc2c1oc1ccccc12)C(=O)N[C@@H](Cc1ccc(OC(=O)N2CCN(C(=O)c3ccccc3)CC2)cc1)C(=O)O", "mid"),
    ("Cc1ccccc1OCC(=O)N[C@@H](CC(C)C)C(=O)N[C@@H](Cc1ccc(OC(=O)N2CCC(C(=O)N3CCCCC3)CC2)cc1)C(=O)O", "lo"),
    ("CC(C)C[C@H](NC(=O)COc1cc2ccccc2cc1C(=O)N1CCCCC1)C(=O)N[C@@H](Cc1ccc(OC(=O)N2CCC(NC(=O)Cc3ccccc3)CC2)cc1)C(=O)O", "mid"),
    ("CC(C)C[C@H](NC(=O)COc1ccccc1I)C(=O)N[C@@H](Cc1ccc(OC(=O)N2CCC(NC(=O)Cc3ccccc3)CC2)cc1)C(=O)O", "mid"),
    ("CC(C)C[C@H](NC(=O)COc1ccccc1C(C)(C)C)C(=O)N[C@@H](Cc1ccc(OC(=O)N2CCC(NC(=O)CC3CCCCC3)CC2)cc1)C(=O)O", "hi"),
    ("CC(C)C[C@H](NC(=O)COc1ccccc1I)C(=O)N[C@@H](Cc1ccc(OC(=O)N2CCN(C(=O)c3ccco3)CC2)cc1)C(=O)O", "mid"),
    ("CC(C)C[C@H](NC(=O)c1cccc2c1oc1ccccc12)C(=O)N[C@@H](Cc1ccc(OC(=O)N2CCN(C(=O)c3ccco3)CC2)cc1)C(=O)O", "mid"),
    ("CC(C)C[C@H](NC(=O)COc1ccc(Cl)cc1Cl)C(=O)N[C@@H](Cc1ccc(OC(=O)N2CCOCC2)cc1)C(=O)O", "lo"),
    ("CC(C)C[C@H](NC(=O)c1cccc2c1oc1ccccc12)C(=O)N[C@@H](Cc1ccc(OC(=O)N2CCC(NC(=O)Cc3ccc(Cl)cc3)CC2)cc1)C(=O)O", "hi"),
    ("CC(=O)N1CCN(C(=O)Oc2ccc(C[C@H](NC(=O)[C@H](CC(C)C)NC(=O)COc3ccccc3I)C(=O)O)cc2)CC1", "lo"),
    ("CC(C)C[C@H](NC(=O)COc1ccccc1C(C)(C)C)C(=O)N[C@@H](Cc1ccc(OC(=O)N2CCC(C(=O)NCc3ccc(F)cc3)CC2)cc1)C(=O)O", "mid"),
    ("CC(C)C[C@H](NC(=O)COc1ccccc1C(C)(C)C)C(=O)N[C@@H](Cc1ccc(OC(=O)N2CCC(NC(=O)Cc3ccc(Cl)cc3)CC2)cc1)C(=O)O", "hi"),
    ("CC(C)C[C@H](NC(=O)COc1ccccc1C(=O)c1ccccc1)C(=O)N[C@@H](Cc1ccc(OC(=O)N2CCC(NC(=O)Cc3ccc(Cl)cc3)CC2)cc1)C(=O)O", "hi"),
    ("CC(C)C[C@H](NC(=O)COc1ccccc1I)C(=O)N[C@@H](Cc1ccc(OC(=O)N2CCN(C(=O)c3ccccc3)CC2)cc1)C(=O)O", "lo"),
    ("CC(C)C[C@H](NC(=O)COc1cc2ccccc2cc1C(=O)N1CCCCC1)C(=O)N[C@@H](Cc1ccc(OC(=O)N2CCC(NC(=O)Cc3ccc(Cl)cc3)CC2)cc1)C(=O)O", "mid"),
    ("CC(C)C[C@H](NC(=O)COc1ccccc1C1CCCCC1)C(=O)N[C@@H](Cc1ccc(OC(=O)N2CCC(NC(=O)Cc3ccccc3)CC2)cc1)C(=O)O", "hi"),
]
